Record form. Attribute: inhibition. Fill in for each entry.
assay: growth suppression of yeast trafficking mutant, preliminary HTS, modulators of trafficking downstream of Golgi apparatus project, 1536-format plate, OD 615 nm (AID 637); settings: yeast transport mutant growth, absorbance 615 nm, 18 h; stronger effect = higher value
Expressed in %, but write only the number.

// query inhibition value for entry `COc1ccccc1N1CCN(CCCNC(=O)Nc2ccccc2)CC1`
-0.48

Try this compound too: `CCNC(=O)N1c2ccc(OCC)cc2C(C)=CC1(C)C`
-1.15

Try this compound too: `O=C(CN1CCC(n2nnc3cc(F)ccc32)CC1)Nc1ccc2c(c1)CCC2`
-3.5

Try this compound too: `CCOC(=O)C1CCN(Cc2c(O)ccc3ccccc23)CC1`
5.4

###

experiment: growth inhibitors of H69AR lung tumor, primary screen, human, duplicate replicates (AID 580); details: H69AR lung tumor cells viability, ATP luminescence, 72 h; at 10 µM;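 also: 100% = mean luminescence of untreated wells and 0% = no signal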
Activity calls are given as the source filed them.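 Rule for the calls: active = viability at or under a set limit in both replicates, limit being median viability minus 3 SD (cut at about 48% in these data, passing the limit was not always enough); inconclusive = at or under the limit in just one replicate; inactive = at or above the limit in both replicates.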
// classify into 1.0 = active, 0.0 = inactive

Given COc1ccc(N(CC(=O)N2c3ccccc3CC2C)S(=O)(=O)c2c(C)noc2C)cc1 (configuration not stated) , state the outcome it received in this test.
0.0

Try this compound too: `O=c1cc(-c2ccc(Cl)cc2)[nH][nH]1`
0.0

Try this compound too: CC(=O)N1CCc2cc(S(=O)(=O)NC(CC(C)C)C(=O)N3CCn4c3nc3ccccc34)ccc21 (configuration not stated)
0.0

Try this compound too: Cc1ccc(NCC(O)C(O)C(O)CO)cc1C (configuration not stated)
0.0

Try this compound too: `COc1ccc(-c2cc(O)cc(O)c2)cc1`
0.0

Try this compound too: `CC1(C)COCN1S(=O)(=O)c1ccc(C(=O)Nc2nnc(-c3ccc(Cl)s3)o2)cc1`
1.0

Try this compound too: `CCOC(=O)/C(C#N)=C1\Nc2ccccc2N=C1N(CC(C)C)CC(C)C`
0.0

Try this compound too: `Cc1ccc2[nH]c(=O)c(CN(CCCN3CCOCC3)C(=O)Nc3cccc(Cl)c3)cc2c1`
0.0

Try this compound too: `Cc1onc(-c2ccccc2Cl)c1C(=O)NCc1cccnc1`
0.0

Try this compound too: `O=C(NCCCN1CCCC1=O)c1cncc(Br)c1`
0.0

Try this compound too: `COc1ccc(OCC(=O)N2CCN(C(=O)Cc3ccccc3)CC2)cc1`
0.0

Try this compound too: `Cc1cccc(-n2ccnc2SCC(=O)Nc2cc(C)on2)c1`
0.0

Try this compound too: N#CC1=C(N)N(c2ccccc2)C2=C(C(=O)CCC2)C1c1cccs1 (configuration not stated)
0.0

Try this compound too: `CCOC(=O)CSc1nnc(-c2ccccc2OC)o1`
0.0

Try this compound too: `O=C(CCSc1nccn1Cc1ccccc1)N1CCOCC1`
0.0

Try this compound too: `CCCn1c(N2CCN(CC(=O)Nc3ccc4c(c3)OCCO4)CC2)nc2ccccc21`
0.0

Try this compound too: COc1ccc(C2C(C(=O)c3sc(C)nc3C)=C(O)C(=O)N2CCN2CCOCC2)cc1 (configuration not stated)
0.0

###

Record form. Attribute: viability. Fill in for each entry.
experiment: SK-BR-3 cell growth inhibitors, pilot screen, 24 h, human (AID 572); conditions: SK-BR-3 viability, CellTiter-Glo luminescence, at 10 µM, stronger effect = lower value;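 also: compound exposure lasted between 18 and 24 h rather than exactly 24 h; 100% = carrier-treated control wells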
Expressed in %, but write only the number.

// query viability value for entry `O=C(CSc1n[nH]c(-c2cccs2)n1)N1CCN(S(=O)(=O)c2ccccc2)CC1`
80.5

Try this molecule too: CC(C)(C)OC(=O)N1CCCC1C(=O)N1CCc2ccccc21 (stereo unspecified)
95.5

Try this molecule too: `CSc1ccccc1N=CC1=C(O)CC(C)(C)CC1=O`
118

Try this molecule too: `CCOC(=O)C1CCN(c2c(NCCCN(CC)c3ccccc3)c(=O)c2=O)CC1`
83.5

Try this molecule too: `O=C(c1cnn2c(C(F)(F)F)cc(-c3ccco3)nc12)N1CCc2ccccc2C1`
76

Try this molecule too: `Cn1c2ccc(F)cc2c2ncn(CCN3CCOCC3)c(=O)c21`
88.5

Try this molecule too: O=C(NC1CCCCCC1)C1c2ccccc2C(=O)N1Cc1cccnc1 (stereo unspecified)
108

Try this molecule too: O=C(NCc1cccnc1)C1c2ccccc2C(=O)N1Cc1ccco1 (stereo unspecified)
94.5

Try this molecule too: `CCCc1cn(S(=O)(=O)c2ccc(OC)cc2OC)nc1N`
98

Try this molecule too: `O=C1CCCc2c1cc(C(=O)NCc1ccco1)c(=O)n2-c1ccc(Cl)cc1`
88

Try this molecule too: `O=S(=O)(c1ccc2nc(Cc3cccc(C(F)(F)F)c3)[nH]c2c1)N1CCOCC1`
104

Try this molecule too: `CC(C)(C)c1cc(C(=O)O)nn1-c1ccccc1`
112

Try this molecule too: `COC(=O)c1cc2oc(C)cc2n1CC(=O)N(C)c1ccccc1`
93

Try this molecule too: `CCOC(=O)c1cnc(-n2cc(C)cn2)nc1Nc1ccccc1OC`
92.5

Try this molecule too: CN(C1CCS(=O)(=O)C1)S(=O)C12CC3CC(CC(C3)C1)C2 (stereo unspecified)
83

Try this molecule too: Cc1ccc2cc(C#N)c(NCCCNC(=O)C3CCCO3)nc2c1 (stereo unspecified)
106

Try this molecule too: CCC(Sc1ccc2nnc(-c3ccc(F)cc3)n2n1)C(=O)OC (stereo unspecified)
110

Try this molecule too: `Cc1oc2nc(SCCCC(=O)NCCCO)nc(N)c2c1C`
91.5

Try this molecule too: `CCn1nc(C(=O)OCC(=O)N2CCc3ccccc32)c2ccccc2c1=O`
99.5

Try this molecule too: `CC1(C)C(=O)Nc2ccccc2N1C(=O)COC(=O)Cn1cnc2ccccc2c1=O`
110

Try this molecule too: CC(Sc1nc(-c2ccccc2)cc(C(F)(F)F)n1)C(=O)N1CCC(C(N)=O)CC1 (stereo unspecified)
100

Try this molecule too: `COc1cc2c(C)nc(C)c(C#N)c2cc1OC`
111

Try this molecule too: `COc1ccc(-n2ncc3c(NCCCN4CCOCC4)ncnc32)cc1`
102

Try this molecule too: `O=C(c1ccc2c(c1)OCCO2)C1CCN(C(=O)c2ccc(F)cc2)CC1`
102

Try this molecule too: `Cc1noc(C)c1CSc1nnc(-c2ccncc2)n1-c1cccc(Cl)c1C`
81.5

Try this molecule too: COc1ccc(Cn2nnnc2C(c2cc3cc(C)cc(C)c3[nH]c2=O)N2CCOCC2)cc1 (stereo unspecified)
108

Try this molecule too: COc1ccc(OC)c(S(=O)(=O)N2CCC(C(=O)NCC3CCCO3)CC2)c1 (stereo unspecified)
101

Try this molecule too: `Cc1cccc2cc(COC(=O)C(C)(C)C)c(=O)[nH]c12`
95.5

Try this molecule too: `COc1ccc(CCNc2nc(N3CCOCC3)nc(N3CCOCC3)n2)cc1OC`
81

Try this molecule too: `Cc1cc(C)nc(NC(=O)c2c(-c3c(Cl)cccc3Cl)noc2C)n1`
84

Try this molecule too: CS(=O)(=O)N1CCCC(C(=O)NCCCN2CCc3ccccc3C2)C1 (stereo unspecified)
93

Try this molecule too: `Cc1cc2ncc(C(=O)Nc3ccccc3)c(C)n2n1`
94

Try this molecule too: COCCn1c(SCC(=O)c2ccccc2)nc2c(c1=O)SC(C)C2 (stereo unspecified)
108

Try this molecule too: `COC(=O)CCn1nnc(-c2cccs2)n1`
99.5

Try this molecule too: `CCOC(=O)c1cc2sccc2n1Cc1ccccc1`
100

Try this molecule too: `CCSc1nnc(NC(=O)CCNS(=O)(=O)c2cc(Br)cnc2N)s1`
79.5

Try this molecule too: `O=C(NCc1cccs1)c1cc2c(s1)-c1ccccc1OC2`
96

Try this molecule too: `CCCC(=O)Nc1cc(C)c(NC(=O)c2ccccn2)cn1`
90.5

Try this molecule too: `CCOc1ccc(-c2nc(C#N)c(N3CCCCCC3)o2)cc1`
138

Try this molecule too: `CCOc1cccc(C(=O)Nc2cccc(-c3nc4ncccc4o3)c2C)c1`
99

Try this molecule too: `COc1cccc(N2CCN(CC(=O)Nc3nnc(-c4ccccc4)s3)CC2)c1`
86

###

assay: reversal of MRP1-mediated doxorubicin resistance, pilot screen, H69AR cells, doxorubicin co-treatment (AID 601); conditions: H69AR cells, CellTiter-Glo, 72 h; compound alone cytotoxicity; at 10 µM
property: viability (%)
Expressed in %, but write only the number.

// query viability value for entry `O=c1oc2ccccc2n1CCc1ccccc1`
93.7

Try this compound too: `C=CCOc1ccc(/C=N/n2cncn2)cc1OC`
94.6

Try this compound too: `CCN(Cc1nc2ccccc2c(=O)[nH]1)Cc1nc2cc(OC)c(OC)cc2c(=O)[nH]1`
89.8

Try this compound too: `Fc1ccc(-c2csc3nnc(SCc4cccnc4)n23)cc1`
82.9

Try this compound too: `CC(C)NC(=O)CSCc1ccccc1Cl`
94.8

Try this compound too: O=C1NC(c2cccs2)Nc2ccccc21 (stereo unspecified)
86.7

Try this compound too: `CCCOc1cccc(-c2nnc(N)s2)c1`
100

Try this compound too: `Cc1cc(C)nc(NC(=O)c2ccc(OC(C)C)cc2)n1`
104

Try this compound too: `CCOc1cc2[nH]c(=O)n(CCCCC(=O)N3CCCCCC3)c(=O)c2cc1OCC`
76.8

Try this compound too: `Brc1ccc(-c2cn3cccnc3n2)cc1`
104

Try this compound too: `CCC(=O)N1CCN=C1SCc1ccc(Cl)cc1`
95.1

Try this compound too: COc1cccc(NC(=O)N2CCN(C(=O)C(Cc3ccc(OC)c(OC)c3)NC(C)=O)CC2)c1 (stereo unspecified)
90.7

Try this compound too: `CC(C)c1ccc(S(=O)(=O)N2CCN(CCC(=O)Nc3ccc(N(C)C)cc3)CC2)cc1`
60.6

Try this compound too: `Cc1nn(-c2ccccc2)c(C)c1C(=O)OCC(=O)c1c(N)n(CC(C)C)c(=O)n(C)c1=O`
77.8

Try this compound too: `Cc1nn(C)cc1NC(=O)CCSc1nc(-c2ccco2)cc(C(F)(F)F)n1`
87.3

Try this compound too: `CC(C)Oc1ccc(-c2nn(-c3ccccc3)cc2/C=c2\sc3ncnn3c2=O)cc1`
98.1

Try this compound too: O=C(NCC1CCCO1)C1CCCN(S(=O)(=O)c2cccc3nsnc23)C1 (stereo unspecified)
98.5

Try this compound too: `O=C(Nn1cnnc1)c1cc2c(s1)CCCC2`
102

Try this compound too: `O=C(Nc1ccc(Cc2ccc(NC(=O)N3CCOCC3)cc2)cc1)N1CCOCC1`
98.5

Try this compound too: `NC(=O)c1nsnc1-c1ccccc1O`
90.2

Try this compound too: `Cc1sc2ncnc(OCC(=O)N3CCN(S(=O)(=O)c4ccc(Cl)cc4)CC3)c2c1C`
84.8

Try this compound too: COc1ccccc1NC(=O)C1=C(C)Nc2nnnn2C1c1ccccc1OC (stereo unspecified)
98.9

Try this compound too: `O=C(NCc1ccccn1)Nc1ccc2c(c1)OCO2`
92.4

Try this compound too: `CCOC(=O)N1CCN(S(=O)(=O)c2ccc(Br)s2)CC1`
94.4

Try this compound too: `Cc1cc(C(=O)Nc2ccccc2C#N)n(-c2ccccc2)n1`
93.9

Try this compound too: CCc1[nH]nc2c1C(c1cccc(OC(=O)N3CCOCC3)c1)C(C#N)=C(N)O2 (stereo unspecified)
89.5

Try this compound too: `CCCCOCCCNC(=O)c1ccccc1OCC`
87.8

Try this compound too: `O=C(NCc1ccco1)c1cnn2c(C(F)(F)F)cc(-c3ccco3)nc12`
71.8

Try this compound too: `CN(CCC#N)C(=O)COC(=O)c1ccc(Cl)c(S(N)(=O)=O)c1`
95.9

Try this compound too: `CCOc1cccc(C(=O)Nc2cccc(-c3nc4ncccc4o3)c2C)c1`
75.6

Try this compound too: `COc1cc(NC(=O)Cc2cccs2)ccc1-n1cnnn1`
102
